# Measured target: TrkB (Homo sapiens, UniProt Q16620)
# Sequence (Q16620 32-822): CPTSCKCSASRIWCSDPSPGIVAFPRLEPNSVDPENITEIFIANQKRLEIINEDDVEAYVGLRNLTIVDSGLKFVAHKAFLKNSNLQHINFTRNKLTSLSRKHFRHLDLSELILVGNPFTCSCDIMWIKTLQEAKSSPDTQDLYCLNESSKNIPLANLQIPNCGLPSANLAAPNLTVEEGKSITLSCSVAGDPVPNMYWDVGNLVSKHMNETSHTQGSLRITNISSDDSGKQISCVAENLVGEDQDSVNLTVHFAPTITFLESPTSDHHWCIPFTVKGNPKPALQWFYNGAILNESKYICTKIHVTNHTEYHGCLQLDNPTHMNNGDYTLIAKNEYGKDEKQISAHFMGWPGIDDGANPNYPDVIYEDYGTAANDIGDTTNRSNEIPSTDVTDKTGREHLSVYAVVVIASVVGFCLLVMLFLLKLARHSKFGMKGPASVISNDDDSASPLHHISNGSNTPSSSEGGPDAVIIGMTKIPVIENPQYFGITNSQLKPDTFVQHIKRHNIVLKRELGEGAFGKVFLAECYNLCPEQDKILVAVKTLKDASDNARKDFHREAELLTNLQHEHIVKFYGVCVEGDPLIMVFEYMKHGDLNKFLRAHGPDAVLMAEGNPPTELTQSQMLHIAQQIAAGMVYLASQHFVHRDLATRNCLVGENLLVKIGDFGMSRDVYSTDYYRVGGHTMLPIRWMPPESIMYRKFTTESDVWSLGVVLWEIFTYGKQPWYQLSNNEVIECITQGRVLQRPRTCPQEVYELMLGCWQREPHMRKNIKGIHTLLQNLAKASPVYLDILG
# Protocol description: PathHunter eXpress TrkB functional assay kit (U2OS cells, agonist BDNF)
pIC50: −log10 of the molar value.

| Compound | pIC50 |
| --- | --- |
| Oc1c(Cl)cc(-c2c[nH]c3ncnc(NC4CCC(O)CC4)c23)cc1Cl (stereo not shown) | 6.05 |

----------
# Measured target: TrkC (Homo sapiens)
# Sequence (Q16288 32-839): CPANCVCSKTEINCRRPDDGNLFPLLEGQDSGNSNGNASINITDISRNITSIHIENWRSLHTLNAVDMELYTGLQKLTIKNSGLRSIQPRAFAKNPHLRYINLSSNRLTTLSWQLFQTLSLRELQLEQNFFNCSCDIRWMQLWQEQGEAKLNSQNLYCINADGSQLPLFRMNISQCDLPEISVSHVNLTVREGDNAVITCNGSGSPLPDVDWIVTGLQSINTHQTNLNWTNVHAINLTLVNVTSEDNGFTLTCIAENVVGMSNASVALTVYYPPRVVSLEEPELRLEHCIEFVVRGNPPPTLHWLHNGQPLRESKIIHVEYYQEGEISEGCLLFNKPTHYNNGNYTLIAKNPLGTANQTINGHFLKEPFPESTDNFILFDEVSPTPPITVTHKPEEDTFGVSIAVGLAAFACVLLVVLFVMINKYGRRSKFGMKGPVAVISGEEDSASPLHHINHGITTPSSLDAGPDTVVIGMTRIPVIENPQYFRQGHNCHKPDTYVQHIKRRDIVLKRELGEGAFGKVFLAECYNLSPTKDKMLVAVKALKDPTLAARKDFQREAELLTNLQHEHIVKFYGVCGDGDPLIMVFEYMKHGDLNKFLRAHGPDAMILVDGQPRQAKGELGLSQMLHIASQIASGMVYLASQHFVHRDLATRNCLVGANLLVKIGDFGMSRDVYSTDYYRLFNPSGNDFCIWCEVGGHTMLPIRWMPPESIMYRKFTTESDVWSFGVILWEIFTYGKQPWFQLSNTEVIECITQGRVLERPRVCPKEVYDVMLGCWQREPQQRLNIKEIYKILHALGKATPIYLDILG
# Protocol description: PathHunter eXpress TrkC functional assay kit (U2OS cells, agonist NT-3)
# Experimental: The inhibitory activity of the example compounds against TrkB and TrkC was evaluated using PathHunter® eXpress TrkB or TrkC functional assay kit (Product Code: 93-0463E3 and 93-0464E3) of DiscoverX. The test was carried out according to the analysis method provided by the manufacturer. […] 7. The plate was incubated at room temperature for 60 minutes in a dark place, and the […] was measured with a luminescence plate reader.
Observed property: IC50 (nM)

| Given smiles | Measured target | Quantitative readout |
| --- | --- | --- |
| CN1CCN(c2ccc(C(=O)Nc3n[nH]c4ncc(-c5ccccc5)cc34)cc2)CC1 | TrkC (Homo sapiens) | 1070 |

// provenance: patent US12195467B2
